Biological target: CDK9/CycT1 (Homo sapiens, UniProt P50750)
Construct: Recombinant full-length His-tagged human CDK9 and CycT1; purchased Life Technologies PV4131; host or cells: insect cells
Sequence (P50750 whole entry): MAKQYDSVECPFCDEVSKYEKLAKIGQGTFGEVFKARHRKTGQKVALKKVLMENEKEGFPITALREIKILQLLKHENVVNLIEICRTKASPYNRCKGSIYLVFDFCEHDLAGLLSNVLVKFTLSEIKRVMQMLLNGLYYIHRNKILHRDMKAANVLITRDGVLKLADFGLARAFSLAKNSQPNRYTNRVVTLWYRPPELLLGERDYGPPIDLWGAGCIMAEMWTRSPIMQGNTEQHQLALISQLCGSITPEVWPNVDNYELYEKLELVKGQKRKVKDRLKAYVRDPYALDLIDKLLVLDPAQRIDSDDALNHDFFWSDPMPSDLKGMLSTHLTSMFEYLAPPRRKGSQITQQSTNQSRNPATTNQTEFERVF
Sequence (O60563 whole entry partner): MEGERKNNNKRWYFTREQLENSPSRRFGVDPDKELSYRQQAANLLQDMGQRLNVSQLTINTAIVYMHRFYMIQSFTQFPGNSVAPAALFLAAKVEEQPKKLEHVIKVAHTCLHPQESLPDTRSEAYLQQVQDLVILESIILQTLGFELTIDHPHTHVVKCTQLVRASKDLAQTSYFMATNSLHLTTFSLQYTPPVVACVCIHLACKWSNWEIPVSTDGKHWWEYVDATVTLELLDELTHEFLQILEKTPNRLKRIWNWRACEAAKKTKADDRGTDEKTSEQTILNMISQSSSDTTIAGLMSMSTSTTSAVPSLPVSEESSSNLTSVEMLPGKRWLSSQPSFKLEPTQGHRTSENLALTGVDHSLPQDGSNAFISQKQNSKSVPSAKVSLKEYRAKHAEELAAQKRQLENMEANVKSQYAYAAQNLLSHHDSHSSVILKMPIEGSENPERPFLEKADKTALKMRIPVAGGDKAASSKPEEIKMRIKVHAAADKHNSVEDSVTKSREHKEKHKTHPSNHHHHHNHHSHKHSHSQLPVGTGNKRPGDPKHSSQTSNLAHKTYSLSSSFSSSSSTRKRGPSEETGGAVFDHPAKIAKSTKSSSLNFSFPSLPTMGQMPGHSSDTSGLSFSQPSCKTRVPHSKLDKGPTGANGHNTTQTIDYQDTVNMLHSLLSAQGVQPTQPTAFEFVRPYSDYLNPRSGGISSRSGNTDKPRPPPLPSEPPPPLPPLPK
Assay: CDK9/CycT1 high ATP kinase assay (TR-FRET, 2 mM ATP)
Type: biochemical
Conditions: 2 mM ATP (high ATP); median; read-out: CDK9/CyclinT1, 2 mM ATP (high ATP), IC50 (median)
Value Kind: IC50

Compound	Observed
Cc1ccnc2[nH]c(CNc3nc(N4CCN(C)CC4)nc4c(C(C)C)cnn34)nc12	> 20 µM
Fc1ccc2[nH]c(CNc3nc(N4CCOCC4)nc4c(-c5cncs5)cnn34)nc2c1F.O=C(O)C(F)(F)F	> 20 µM
Fc1ccc2[nH]c(CNc3nc(N4C[C@@H]5C[C@H]4CO5)nc4c(C5CC5)cnn34)nc2c1F	> 20 µM
Fc1cccc2[nH]c(CNc3nc(N4CCOCC4)nc4c(Cl)cnn34)nc12	13.8 µM
Brc1cnn2c(NCc3nnc(-c4ccccc4)[nH]3)nc(N3CC4(COC4)C3)nc12	> 5.71 µM
Brc1cnn2c(NCc3nc4c([nH]3)CCCC4)nc(N3CCOCC3)nc12	> 20 µM
NC12CC1CN(c1nc(NCc3nc4ccccc4[nH]3)n3ncc(Br)c3n1)C2 (centres unmarked)	> 20 µM

Moving on to the next compound.
Specify IC50 for Fc1cc2nc(CNc3nc(N4CCOCC4)nc4c(C5CC5)cnn34)[nH]c2cc1F , system CDK9/CycT1 (Homo sapiens, UniProt P50750).
> 20 µM

* * *

Molecular target: CDK12 (nuclear staining in CAL-120 cells) (Homo sapiens)
Construct: endogenous in cells; host or cells: CAL-120 human breast cancer cells (DSMZ ACC 459)
Assay: CDK12 nuclear protein level: immunofluorescence/high content analysis (CAL-120)
Assay type: cell-based
Conditions: ratio of IC50 CDK12 high ATP kinase assay to DC50 CDK12 degradation (IF, CAL-120)
Value Kind: (IC50 CDK12 high ATP) to (Degradation DC50 CDK12) ratio

Molecule	Observed
COc1cccc2[nH]c(CNc3nc(N4CCOCC4)nc4c(CC(F)(F)F)cnn34)nc12 [Example 277]	1071

[1] Clc1cc2nc(CNc3nc(N4CCOCC4)nc4c(C5CC5)cnn34)[nH]c2cc1Cl [Example 301]
[2] CN(CC(C)(C)O)c1nc(NCc2nc3cc(F)c(Cl)cc3[nH]2)n2ncc(Br)c2n1 [Example 338]
[3] Cc1ccc2[nH]c(CNc3nc(N4C[C@@H]5CCCN[C@@H]5C4)nc4c(Br)cnn34)nc2c1 [Example 203]
[4] Cc1cc2nc(CNc3nc(N4CCOCC4)nc4c(C5CC5)cnn34)[nH]c2cc1C [Example 320]
Arrange items by their (IC50 CDK12 high ATP) to (Degradation DC50 CDK12) ratio values in increasing order. Provide the labels, sequenced as the question asks.
4, 1, 2, 3

* * *

Target: CDK12 (nuclear staining in CAL-120 cells) (Homo sapiens, UniProt Q9NYV4)
Construct: endogenous in cells; host or cells: CAL-120 human breast cancer cells (DSMZ ACC 459)
Sequence (Q9NYV4 whole entry): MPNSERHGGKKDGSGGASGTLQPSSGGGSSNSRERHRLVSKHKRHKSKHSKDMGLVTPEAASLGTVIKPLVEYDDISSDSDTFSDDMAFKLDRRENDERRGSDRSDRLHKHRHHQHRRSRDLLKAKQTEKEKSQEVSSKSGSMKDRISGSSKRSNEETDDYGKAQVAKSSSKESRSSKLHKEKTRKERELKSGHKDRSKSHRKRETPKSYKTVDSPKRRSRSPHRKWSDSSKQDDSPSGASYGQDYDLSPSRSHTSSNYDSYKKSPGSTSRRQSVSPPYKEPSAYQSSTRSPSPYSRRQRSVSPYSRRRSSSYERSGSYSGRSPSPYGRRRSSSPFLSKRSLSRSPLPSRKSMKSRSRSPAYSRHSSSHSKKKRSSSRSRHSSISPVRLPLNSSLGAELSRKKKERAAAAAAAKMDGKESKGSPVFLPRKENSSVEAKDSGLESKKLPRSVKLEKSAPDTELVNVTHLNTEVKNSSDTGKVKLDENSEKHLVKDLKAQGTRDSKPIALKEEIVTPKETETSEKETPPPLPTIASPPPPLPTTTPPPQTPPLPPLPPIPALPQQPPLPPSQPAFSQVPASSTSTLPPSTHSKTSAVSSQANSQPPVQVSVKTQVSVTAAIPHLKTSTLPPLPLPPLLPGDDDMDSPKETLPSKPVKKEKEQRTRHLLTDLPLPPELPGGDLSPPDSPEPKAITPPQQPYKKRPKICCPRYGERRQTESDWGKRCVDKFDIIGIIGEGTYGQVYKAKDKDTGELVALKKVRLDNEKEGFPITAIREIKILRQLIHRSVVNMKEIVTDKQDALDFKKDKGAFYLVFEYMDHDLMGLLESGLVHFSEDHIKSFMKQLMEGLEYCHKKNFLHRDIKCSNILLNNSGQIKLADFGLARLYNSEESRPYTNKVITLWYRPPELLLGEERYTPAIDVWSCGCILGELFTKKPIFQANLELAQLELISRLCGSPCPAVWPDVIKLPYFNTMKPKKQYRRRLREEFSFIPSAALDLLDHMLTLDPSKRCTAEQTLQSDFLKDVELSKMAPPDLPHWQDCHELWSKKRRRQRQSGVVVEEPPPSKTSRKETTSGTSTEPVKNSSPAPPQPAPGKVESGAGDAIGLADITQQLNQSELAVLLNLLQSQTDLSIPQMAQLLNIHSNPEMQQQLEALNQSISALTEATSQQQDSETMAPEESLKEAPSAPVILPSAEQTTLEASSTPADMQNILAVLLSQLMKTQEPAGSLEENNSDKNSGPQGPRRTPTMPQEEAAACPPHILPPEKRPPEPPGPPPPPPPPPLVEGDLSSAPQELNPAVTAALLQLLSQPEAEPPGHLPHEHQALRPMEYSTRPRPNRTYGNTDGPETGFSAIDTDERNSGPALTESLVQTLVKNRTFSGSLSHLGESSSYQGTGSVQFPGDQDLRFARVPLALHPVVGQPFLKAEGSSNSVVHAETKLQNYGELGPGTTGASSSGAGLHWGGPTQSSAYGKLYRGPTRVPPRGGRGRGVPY
Sequence (O75909 whole entry partner): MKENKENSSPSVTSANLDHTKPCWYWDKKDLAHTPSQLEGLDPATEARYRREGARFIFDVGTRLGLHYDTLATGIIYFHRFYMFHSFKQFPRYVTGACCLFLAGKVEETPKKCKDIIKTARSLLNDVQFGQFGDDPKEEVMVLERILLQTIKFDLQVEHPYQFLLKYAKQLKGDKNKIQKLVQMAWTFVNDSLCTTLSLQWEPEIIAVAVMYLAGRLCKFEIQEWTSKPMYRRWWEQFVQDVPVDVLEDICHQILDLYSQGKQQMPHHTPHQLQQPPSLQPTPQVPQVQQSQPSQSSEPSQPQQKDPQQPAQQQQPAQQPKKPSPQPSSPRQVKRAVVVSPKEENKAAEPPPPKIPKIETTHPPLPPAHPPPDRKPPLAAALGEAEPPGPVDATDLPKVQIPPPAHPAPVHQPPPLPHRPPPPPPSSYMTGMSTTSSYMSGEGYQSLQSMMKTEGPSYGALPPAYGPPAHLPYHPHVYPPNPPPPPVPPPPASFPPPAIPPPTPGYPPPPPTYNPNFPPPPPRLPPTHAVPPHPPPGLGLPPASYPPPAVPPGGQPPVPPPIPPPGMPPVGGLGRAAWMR
Assay: CDK12 nuclear protein level: immunofluorescence/high content analysis (CAL-120)
Assay type: cell-based
Details: ratio of IC50 CDK12 high ATP kinase assay to DC50 CDK12 degradation (IF, CAL-120)
Value Kind: (IC50 CDK12 high ATP) to (Degradation DC50 CDK12) ratio

Compound	Observed
Brc1cnn2c(NCc3nnc(-c4ccccc4)[nH]3)nc(N3C[C@@H]4C[C@H]3CO4)nc12 [Example 120]	2588
Fc1ccc2[nH]c(CNc3nc(N4C[C@@H]5CCCN[C@@H]5C4)nc4c(C5CC5)cnn34)nc2c1F [Example 171]	3278
Fc1ccc2[nH]c(CNc3nc(N4C[C@H]5CC[C@@H](C4)N5)nc4c(C5CC5)cnn34)nc2c1F [Example 294]	684

* * *

Target: CDK12 (nuclear staining in CAL-120 cells) (Homo sapiens)
Construct: endogenous in cells; host or cells: CAL-120 human breast cancer cells (DSMZ ACC 459)
Assay: CDK12 nuclear protein level: immunofluorescence/high content analysis (CAL-120)
Assay type: cell-based
Settings: CAL-120 cells, 24 h, immunofluorescence; 50% reduction of nuclear CDK12 staining intensity; median; read-out: CDK12 degradation IF, DC50- [mol/l] (median)
Value Kind: DC50 (nM)

Compound	DC50 [nM]
N[C@@H]1[C@@H]2C[C@H]1CN(c1nc(NCc3nc4ccccc4[nH]3)n3ncc(Br)c3n1)C2 [Example 289]	3.13

[I] Brc1cnn2c(NCc3nc4ccccc4[nH]3)nc(NCCN3CCCC3)nc12 [Example 235]
[II] Fc1cccc2[nH]c(CNc3nc(N4CCOCC4)nc4c(Br)cnn34)nc12 [Example 97]
[III] c1ccc(-c2cnn3c(NCc4nc5ccccc5[nH]4)nc(N4CCOCC4)nc23)cc1 [Example 104]
Arrange items by their DC50 values in increasing order. Provide the labels, sequenced as the question asks.
II, III, I

* * *

Test system: CAL-120, human breast adenocarcinoma cells
Assay: Proliferation assay CAL-120 (crystal violet, 4 days)
Format: cell-based
Conditions: Homo sapiens, CAL-120, 96 h, CAL-120 cells, median, read-out: Prolif-CAL-120, IC50-[mol/l] (median)
pIC50: −log10 of the molar value.
Value Kind: pIC50

[A] CN(CC(C)(C)O)c1nc(NCc2nc3c(F)c(F)ccc3[nH]2)n2ncc(C(F)(F)F)c2n1 [Example 402]
[B] COCCNc1nc(NCc2nc3ccccc3[nH]2)n2ncc(Br)c2n1 [Example 230]
[C] COc1cccc2[nH]c(CNc3nc(N4CCOCC4)nc4c(CC(F)(F)F)cnn34)nc12 [Example 277]
Please arrange the 3 molecules above from largest to smallest pIC50 value. Provide the labels, sequenced as the question asks.
A, C, B
(A: 8.11, C: 7.51, B: 6.50)

* * *

Biological target: CDK2/CycE (Homo sapiens, UniProt P24941)
Test: CDK2/CycE kinase assay (TR-FRET, 2 mM ATP)
Settings: 2 mM ATP (high ATP); median; read-out: CDK2/CyclinE, 2 mM ATP (high ATP), IC50 (median)
Value Kind: IC50 (µM)

Smiles Text	IC50 (µM)
COc1cccc(-c2cnc(CNc3nc(N4CCOCC4)nc4c(Br)cnn34)[nH]2)c1	4.04

[a] Fc1ccc2[nH]c(CNc3nc(N4CCOCC4)nc4c(Br)cnn34)nc2c1
[b] Brc1cnn2c(NCc3nc4ccccc4[nH]3)nc(N3CCOCC3)nc12
# query: argmin of IC50 over a and b Identify your selection by its label.
b
(b: 2.28 µM, a: 3.88 µM)

* * *

Biological target: CDK12/CycK (Homo sapiens)
Sequence (Q9NYV4 with tags, fused parts or gaps): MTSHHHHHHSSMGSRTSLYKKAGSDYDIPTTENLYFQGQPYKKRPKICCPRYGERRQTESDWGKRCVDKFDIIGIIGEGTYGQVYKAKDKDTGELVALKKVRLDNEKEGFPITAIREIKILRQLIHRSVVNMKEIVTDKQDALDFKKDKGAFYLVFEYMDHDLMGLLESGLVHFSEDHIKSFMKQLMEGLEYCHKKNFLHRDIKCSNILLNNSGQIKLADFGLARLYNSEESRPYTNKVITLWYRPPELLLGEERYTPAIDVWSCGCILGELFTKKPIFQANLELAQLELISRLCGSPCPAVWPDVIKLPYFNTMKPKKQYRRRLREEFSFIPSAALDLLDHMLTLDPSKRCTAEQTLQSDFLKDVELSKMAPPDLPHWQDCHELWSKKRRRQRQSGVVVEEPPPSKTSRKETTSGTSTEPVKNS
Sequence (O75909 1-300 partner limits assumed): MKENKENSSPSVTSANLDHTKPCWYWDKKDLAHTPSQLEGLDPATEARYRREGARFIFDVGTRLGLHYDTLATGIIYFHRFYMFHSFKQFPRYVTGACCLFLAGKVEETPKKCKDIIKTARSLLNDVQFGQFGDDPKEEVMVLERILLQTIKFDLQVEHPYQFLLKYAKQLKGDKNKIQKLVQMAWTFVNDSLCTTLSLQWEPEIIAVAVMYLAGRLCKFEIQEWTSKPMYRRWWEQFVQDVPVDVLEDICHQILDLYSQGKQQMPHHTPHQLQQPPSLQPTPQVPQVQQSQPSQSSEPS
Test: CDK12/CycK high ATP kinase assay (TR-FRET, 2 mM ATP)
Conditions: 2 mM ATP (high ATP); median; read-out: CDK12/CyclinK, 2 mM ATP (high ATP), IC50-[mol/l] (median)
Procedure: In the context of the present invention, the term “IC50 CDK12 hATP” refers to the IC50 values obtained according to the assay described in this section (2.2) herein below, i.e. the IC50 values for the inhibition of CDK12 at high (2 mM) ATP. […]
Value Kind: IC50 (µM)

Illustrative cases are given below, each with its answer.
Molecule	Unit Abbreviation	IC50
C[C@@H]1CN(c2nc(NCc3nc4ccccc4[nH]3)n3ncc(Br)c3n2)C[C@H](C)N1	µM	10.8
Fc1ccc2[nH]c(CNc3nc(N4CCOCC4)nc4c(C5CC5(F)F)cnn34)nc2c1F (stereo not drawn)	µM	2.44
CN1C2CCC1CN(c1nc(NCc3nc4c(F)c(F)ccc4[nH]3)n3ncc(C(F)(F)F)c3n1)C2	µM	4.91
FC(F)(F)c1ccc2[nH]c(CNc3nc(N4CCOCC4)nc4c(Br)cnn34)nc2c1	µM	1.55
CN1CCN(c2nc(NCc3nc4cc(F)c(Cl)cc4[nH]3)n3ncc(Br)c3n2)CC1	µM	8.72

[a] Clc1cc2nc(CNc3nc(N4CCOCC4)nc4c(C5CC5)cnn34)[nH]c2cc1Cl
[b] NC1(C(F)(F)F)CCN(c2nc(NCc3nc4ccccc4[nH]3)n3ncc(Br)c3n2)C1 (stereo not drawn)
# query: argmin of IC50 over a and b Identify your selection by its label.
a
(a: 1.18 µM, b: 3.48 µM)

* * *

Tested on: CAL-120, human breast adenocarcinoma cells
Experiment: Proliferation assay CAL-120 (crystal violet, 4 days)
Format: cell-based
Details: Homo sapiens, CAL-120, 96 h, CAL-120 cells, median, read-out: Prolif-CAL-120, IC50-[mol/l] (median)
Procedure: Human tumour cells were originally obtained from the American Type Culture Collection (ATCC), or from the Deutsche Sammlung von Mikroorganismen und Zellkulturen (DSMZ, German Collection of Microorganisms and Cell Cultures). […] Cell proliferation was determined by staining the cells with crystal violet: the cells were fixed by adding 20 microL/measuring point of an 11% glutaric aldehyde solution for 15 minutes at room temperature. […] The extinction was determined by photometry at a wavelength of 595 nm. […]
Value Kind: IC50 (nM)

Illustrative cases are given below, each with its answer.
Compound	Unit Abbreviation	IC50
Brc1cnn2c(NCc3nc4ccccc4[nH]3)nc(OCC3CC3)nc12	nM	252
C[C@H]1CN(c2nc(NCc3nnc(-c4ccccc4)[nH]3)n3ncc(Br)c3n2)CCN1C.O=CO [Example 122, formate]	nM	18.5
CN1CCN(c2nc(NCc3nc4cc(Cl)ccc4[nH]3)n3ncc(C(F)(F)F)c3n2)CC1	nM	4.05

[1] CCc1cnn2c(NCc3nc4ccccc4[nH]3)nc(N3CCN(C)CC3)nc12
[2] COc1cccc2[nH]c(CNc3nc(N4C[C@@H]5CCCN[C@@H]5C4)nc4c(C5CC5)cnn34)nc12
[3] Clc1ccccc1-c1cnc(CNc2nc(N3CCOCC3)nc3c(Br)cnn23)[nH]1
[4] CN(CCN1CCCC1)c1nc(NCc2nc3ccccc3[nH]2)n2ncc(Br)c2n1
[5] O[C@@H]1CCN(c2nc(NCc3nc4ccccc4[nH]3)n3ncc(Br)c3n2)C1
Arrange items by their IC50 values in increasing order. Provide the labels, sequenced as the question asks.
2, 1, 3, 5, 4
(2: 6.2 nM, 1: 10.2 nM, 3: 30.1 nM, 5: 131 nM, 4: 436 nM)

[I] Clc1ccc(-c2cnc(CNc3nc(N4CCOCC4)nc4c(Br)cnn34)[nH]2)cc1
[II] CN1CCN(c2nc(NCc3nc4cc(Cl)c(Cl)cc4[nH]3)n3ncc(C4CC4)c3n2)CC1
[III] COc1ccc2[nH]c(CNc3nc(N4C[C@@H](C)O[C@@H](C)C4)nc4c(Br)cnn34)nc2c1
Arrange items by their IC50 values in increasing order. Provide the labels, sequenced as the question asks.
II, III, I

[P] CN(CC1CC1)c1nc(NCc2nc3ccccc3[nH]2)n2ncc(Br)c2n1
[Q] Brc1cnn2c(NCc3nc4ccccc4[nH]3)nc(N3C[C@@H]4CN[C@@H]4C3)nc12.O=C(O)C(F)(F)F
[R] Fc1ccc2[nH]c(CNc3nc(N4CCOCC4)nc4c(C(F)(F)F)cnn34)nc2c1F
Put the items in sequence by IC50, from largest down. Provide the labels, sequenced as the question asks.
Q, P, R
(Q: 69.4 nM, P: 33.2 nM, R: 3.57 nM)

Where these numbers come from: patent US20230117034A1
